# TEST_PARAMETERS: in n-butanol, 278.15 K
VALUE_KIND: solubility (mole fraction)

1) Cc1cccc(C(=O)O)c1N    0.0117

###

# TEST_PARAMETERS: in cyclohexane, 303.15 K
VALUE_KIND: solubility (mole fraction)

1) Cc1cccc(C(=O)O)c1N    0.00027

###

# TEST_PARAMETERS: in isopropanol, 313.15 K
VALUE_KIND: solubility (mole fraction)

1. Cc1cccc(C(=O)O)c1N    0.036

###

# TEST_PARAMETERS: in acetone, 308.15 K
VALUE_KIND: solubility (mole fraction)

1) Cc1cccc(C(=O)O)c1N    0.132

###

# TEST_PARAMETERS: in cyclohexane, 293.15 K
VALUE_KIND: solubility (mole fraction)

1) Cc1cccc(C(=O)O)c1N    0.000153

###

# TEST_PARAMETERS: in 1,4-dioxane, 308.15 K
VALUE_KIND: solubility (mole fraction)

1) Cc1cccc(C(=O)O)c1N    0.148

###

# TEST_PARAMETERS: in ethanol, 318.15 K
VALUE_KIND: solubility (mole fraction)

1. Cc1cccc(C(=O)O)c1N    0.0582

###

# TEST_PARAMETERS: in 2-butanone, 308.15 K
VALUE_KIND: solubility (mole fraction)

1) Cc1cccc(C(=O)O)c1N    0.114

###

# TEST_PARAMETERS: in 1,4-dioxane, 293.15 K
VALUE_KIND: solubility (mole fraction)

1) Cc1cccc(C(=O)O)c1N    0.117

###

# TEST_PARAMETERS: in acetonitrile, 278.15 K
VALUE_KIND: solubility (mole fraction)

1. Cc1cccc(C(=O)O)c1N    0.0227

###

# TEST_PARAMETERS: in ethanol, 293.15 K
VALUE_KIND: solubility (mole fraction)

1) Cc1cccc(C(=O)O)c1N    0.0286

###

# TEST_PARAMETERS: in acetone, 298.15 K
VALUE_KIND: solubility (mole fraction)

1) Cc1cccc(C(=O)O)c1N    0.111

###

# TEST_PARAMETERS: in toluene, 283.15 K
VALUE_KIND: solubility (mole fraction)

1. Cc1cccc(C(=O)O)c1N    0.00145

###

# TEST_PARAMETERS: in n-propanol, 288.15 K
VALUE_KIND: solubility (mole fraction)

1) Cc1cccc(C(=O)O)c1N    0.0212

###

# TEST_PARAMETERS: in ethanol, 303.15 K
VALUE_KIND: solubility (mole fraction)

1) Cc1cccc(C(=O)O)c1N    0.0385

###

# TEST_PARAMETERS: in methanol, 278.15 K
VALUE_KIND: solubility (mole fraction)

1) Cc1cccc(C(=O)O)c1N    0.02

###

# TEST_PARAMETERS: in isopropanol, 308.15 K
VALUE_KIND: solubility (mole fraction)

1. Cc1cccc(C(=O)O)c1N    0.0303
